B1: library; the commonest letter at each place (parent)
chain: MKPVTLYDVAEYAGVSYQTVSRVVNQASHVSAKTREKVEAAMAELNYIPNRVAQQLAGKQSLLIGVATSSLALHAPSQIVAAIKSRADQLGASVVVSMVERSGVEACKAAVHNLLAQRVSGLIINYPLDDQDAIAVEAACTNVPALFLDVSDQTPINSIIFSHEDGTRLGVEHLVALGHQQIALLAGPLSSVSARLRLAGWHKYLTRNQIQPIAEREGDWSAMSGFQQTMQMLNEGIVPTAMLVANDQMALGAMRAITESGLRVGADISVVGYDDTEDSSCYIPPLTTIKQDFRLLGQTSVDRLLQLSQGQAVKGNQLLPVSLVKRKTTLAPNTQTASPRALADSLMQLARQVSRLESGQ

variants of: B1; experiment: Hill coefficient n (dimensionless); higher = steeper dose response; details: with IPTG
Field: Hill coefficient n. Provide a value for each of the variants that follow.
Numbers only.

Observe how each entry below is paired with its result.
mutant name	Hill coefficient n
G200C	1.58
F161V	1.59
S70R Q231R	1.47

Kindly give each listed record's Hill coefficient n.
1. L296R
2. S69T I83M
3. V80L S279T
4. E100V T299I
5. S70R S97T F161V

1. 1.33
2. 1.48
3. 1.56
4. 1.54
5. 1.16

Need Hill coefficient n for each of these variants.
1. R51H
2. G103D H202Y P284T
3. S69F
4. S70R V150A S190T F226L
5. N113D D132N T154R M242I V313A K314N R340S

1: 1.46; 2: 1.64; 3: 1.51; 4: 1.48; 5: 1.64

# batch size: 8; output Hill coefficient n per entry
1. Q181H
2. E44D R101G R303S R355L
3. S69T I83M S97T
4. V94L V99I V104I L307F
5. A82V
6. K203N D278V S280L I283V
7. V95M A337T
8. Q55H D130E V192A T258I D267N Y273H N333I

1. 1.63
2. 1.53
3. 1.61
4. 1.56
5. 1.51
6. 1.73
7. 1.59
8. 1.39

Kindly indicate its recorded Hill coefficient n. Item: N125D 1.27
